# pKi per entry
Biological target: MMP-14 (Homo sapiens, UniProt P50281)
Construct: The catalytic domain enzyme was expressed in E. coli inclusion bodies, solubilized in urea; made in house
Test: In vitro MMP inhibition, Ki determination (fluorogenic substrate II)
Assay type: biochemical
Conditions: value not in parenthesis; read-out: MMP-14 Ki
Method: Several hydroxamic acids and salts thereof were analyzed in in vitro assays to determine their ability to inhibit the MMP cleavage of peptide substrates. […] and IC50 constants were calculated from the assayed hydroxamic acid-MMP interactions. […] The assays from which the Ki determinations were made were performed as follows. […] In the absence of MMP inhibitory activity, substrate II was cleaved at the Gly-Leu bond resulting in an increase of relative fluorescence. […]
A value of pKi is the negative decimal logarithm of a concentration given in moles per litre.

>  <molecule>
CCCCOc1ccc(N2CCN(S(=O)(=O)C3(C(=O)NO)CCN(c4nc5ccccc5o4)CC3)CC2)cc1 [Example 150]

>  <pKi>
5.06

$$$$
>  <molecule>
O=C(NO)C1(S(=O)(=O)N2CCN(c3ncc(Br)cn3)CC2)CCOCC1 [Example 104]

>  <pKi>
6.52

$$$$
>  <molecule>
CCCCCc1ccc(N2CCN(S(=O)(=O)C3(C(=O)NO)CCN(S(N)(=O)=O)CC3)CC2)cc1 [Example 205]

>  <pKi>
5.30

$$$$
>  <molecule>
CCCCOc1ccc(N2CCN(S(=O)(=O)C3(C(=O)NO)CCN(c4cnccn4)CC3)CC2)cc1 [Example 140]

>  <pKi>
6.02

$$$$

Exam item: # input molecule: CCCCOc1ccc(N2CCN(S(=O)(=O)C3(C(=O)NO)CCOCC3)CC2)cc1 [Example 145] ; wanted: its pKi
Marked response: 5.63

Exam item: Any idea what pKi was measured for CCCCOc1ccc(N2CCN(S(=O)(=O)C3(C(=O)NO)CCN(Cc4ncc[nH]4)CC3)CC2)cc1 [Example 247] ?
Marked response: 5.70

---

Molecular target: MMP-2 (Homo sapiens)
Construct: made in house; host or cells: MMP-2-transfected p2AHT2 cells
Sequence (P08253 110-660): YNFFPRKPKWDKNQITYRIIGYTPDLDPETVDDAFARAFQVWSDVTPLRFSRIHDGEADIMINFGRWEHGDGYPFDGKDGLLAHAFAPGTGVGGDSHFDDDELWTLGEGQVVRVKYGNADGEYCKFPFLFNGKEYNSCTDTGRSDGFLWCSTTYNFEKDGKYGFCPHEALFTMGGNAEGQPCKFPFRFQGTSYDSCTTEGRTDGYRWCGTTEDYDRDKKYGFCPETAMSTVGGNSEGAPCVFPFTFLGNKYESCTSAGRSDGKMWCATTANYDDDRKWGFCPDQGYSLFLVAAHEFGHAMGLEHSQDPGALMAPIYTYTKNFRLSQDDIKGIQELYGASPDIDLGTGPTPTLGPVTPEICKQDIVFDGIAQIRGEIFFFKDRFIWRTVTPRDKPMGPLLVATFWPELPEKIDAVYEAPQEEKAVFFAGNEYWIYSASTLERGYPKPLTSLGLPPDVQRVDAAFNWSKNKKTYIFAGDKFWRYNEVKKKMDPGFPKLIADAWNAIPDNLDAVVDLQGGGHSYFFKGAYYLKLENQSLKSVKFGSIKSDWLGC
Test: MMP-2 inhibition (in vitro Ki)
Type: biochemical
Conditions: Table 8; read-out: MMP-2 Ki
pKi: −log10 of the molar value. Structures can show the parent of a compound that is named as a salt.
Mark label 0 for pKi values under 8, and label 1 for everything at or above.

Exam item: Textbook exercise: given the entry CCCCOCCC1CCN(S(=O)(=O)C2(C(=O)NO)CCOCC2)CC1 [Example A44] , state whether its pKi is greater than or equal to 8.
Marked response: label 0

Exam item: Check the entry O=C(NO)C1(S(=O)(=O)N2CCN(c3ccc(CCCC(F)(F)F)c(F)c3)CC2)CCN(C2CC2)CC1 [Example A62, Hydrochloride] : does pKi equal or exceed 8?
Marked response: label 1

Exam item: Reported pKi reaches at least 8 for CCCCC=CCCOC1CCN(S(=O)(=O)C2(C(=O)NO)CCOCC2)CC1 [Example A36C] ?
Marked response: label 1

Exam item: Form field: pKi at least 8? Entry: O=C(NO)C1(S(=O)(=O)N2CCC(c3cnc(CCC(F)(F)C(F)(F)F)cn3)CC2)CCOCC1 [Example A65]
Marked response: label 1

Exam item: # bool: pKi of O=C(NO)C1(S(=O)(=O)N2CCC(OCCCc3ccccc3)CC2)CCOCC1 [Example A36G] >= 8
Marked response: label 0

Exam item: Confirm if pKi reported for the molecule CCCCCOCCC1CCN(S(=O)(=O)C2(C(=O)NO)CCOCC2)CC1 [Example A47] is 8 or above.
Marked response: label 0

Exam item: # bool: pKi of O=C(NO)C1(S(=O)(=O)N2CCC(CCCCC(F)(F)C(F)(F)F)CC2)CCOCC1 [Example A53] >= 8
Marked response: label 1

Exam item: Would you say O=C(NO)C1(S(=O)(=O)N2CCC(CCCCCC(F)(F)F)CC2)CCOCC1 [Example A43] shows pKi at minimum 8?
Marked response: label 1

---

Biological target: MMP-13 (Homo sapiens, UniProt P45452)
Construct: made in house; host or cells: baculovirus / insect cells
Test: In vitro MMP inhibition, Ki determination (fluorogenic substrate II)
Type: biochemical
Details: value not in parenthesis; read-out: MMP-13 Ki
outcome measure: pKi
Hey, just a heads up that pKi is the negative log base 10 of the concentration in molar.

// worked examples, pKi included
>  <molecule>
CCCCOc1ccc(N2CCN(S(=O)(=O)C3(C(=O)NO)CCSCC3)CC2)cc1

>  <pKi>
9.25

$$$$
>  <molecule>
O=C(NO)C1(S(=O)(=O)N2CCN(c3ccc(CCC(F)(F)F)cc3)CC2)CCOCC1

>  <pKi>
9.08

$$$$
>  <molecule>
CCCCOc1ccc(N2CCN(S(=O)(=O)C3(C(=O)NO)CCN(c4cc(C)ccn4)CC3)CC2)cc1

>  <pKi>
8.69

$$$$
>  <molecule>
COCCN1CCC(C(=O)NO)(S(=O)(=O)N2CCN(c3ccc(OCCCCF)cc3)CC2)CC1

>  <pKi>
9.74

$$$$
>  <molecule>
O=C(NO)C1(S(=O)(=O)N2CCN(c3ncc(Br)cn3)CC2)CCOCC1 [Example 103]

>  <pKi>
8.46

$$$$
>  <molecule>
CCCc1ccc(N2CCN(S(=O)(=O)C3(C(=O)NO)CCOCC3)CC2)nc1

>  <pKi>
9.37

$$$$
>  <molecule>
CCCCOc1ccc(N2CCN(S(=O)(=O)C3(C(=O)NO)CCN(CCN4CCOCC4)CC3)CC2)cc1

>  <pKi>
9.59

$$$$

Exam item: What value of pKi has been recorded for this entry: O=C(NO)C1(S(=O)(=O)N2CCN(c3ncccn3)CC2)CCOCC1 [Example 107]
Marked response: 7.65

---

Molecular target: MMP-9 (Homo sapiens, UniProt P14780)
Construct: made in house; host or cells: MMP-9-transfected HT1080 cells (spent media)
Sequence (P14780 107-707 limits assumed): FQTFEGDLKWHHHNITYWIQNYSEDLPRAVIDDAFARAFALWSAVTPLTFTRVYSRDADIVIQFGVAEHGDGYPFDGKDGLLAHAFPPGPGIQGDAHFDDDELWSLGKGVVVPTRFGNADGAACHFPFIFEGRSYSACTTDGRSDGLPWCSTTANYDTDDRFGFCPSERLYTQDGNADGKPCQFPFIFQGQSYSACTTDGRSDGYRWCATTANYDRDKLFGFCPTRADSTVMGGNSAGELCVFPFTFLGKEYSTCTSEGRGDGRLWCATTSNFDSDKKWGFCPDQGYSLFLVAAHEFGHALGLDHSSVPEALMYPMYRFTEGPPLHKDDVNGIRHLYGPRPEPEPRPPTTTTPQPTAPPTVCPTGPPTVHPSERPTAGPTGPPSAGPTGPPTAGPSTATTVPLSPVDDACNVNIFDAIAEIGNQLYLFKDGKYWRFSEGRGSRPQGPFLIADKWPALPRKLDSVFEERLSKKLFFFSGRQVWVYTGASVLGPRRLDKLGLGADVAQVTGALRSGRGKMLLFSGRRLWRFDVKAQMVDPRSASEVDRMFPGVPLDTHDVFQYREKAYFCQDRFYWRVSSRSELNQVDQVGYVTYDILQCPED
Experiment: In vitro MMP inhibition, Ki determination (fluorogenic substrate II)
Type: biochemical
Settings: value not in parenthesis
outcome measure: pKi
Scale note: pKi = -log10(concentration in M).

Sample answers from the record:
>  <sample smiles>
CCCCOc1ccc(N2CCN(S(=O)(=O)C3(C(=O)NO)CCN(C(=O)N(CC)CC)CC3)CC2)cc1

>  <pKi>
8.94

$$$$
>  <sample smiles>
CCCCOc1ccc(N2CCN(S(=O)(=O)C3(C(=O)NO)CCN(C(C)(C)C)CC3)CC2)c(F)c1

>  <pKi>
7.75

$$$$
>  <sample smiles>
CCCc1cnc(N2CCN(S(=O)(=O)C3(C(=O)NO)CCN(CCOC)CC3)CC2)nc1

>  <pKi>
8.65

$$$$
>  <sample smiles>
CCCCOc1ccc(N2CCN(S(=O)(=O)C3(C(=O)NO)CCN(C(=O)OCCF)CC3)CC2)cc1

>  <pKi>
9.00

$$$$
>  <sample smiles>
CCCCOc1ccc(N2CCN(S(=O)(=O)C3(C(=O)NO)CCN(C(=O)c4cc5ccccc5s4)CC3)CC2)cc1

>  <pKi>
7.54

$$$$

Exam item: Fill blank: measured pKi of the compound CCCCOc1ccc(N2CCN(S(=O)(=O)C3(C(=O)NO)CCN(c4ccc(Cl)c(Cl)c4)CC3)CC2)cc1 is ____.
Marked response: 7.13

Exam item: I'd like to know its pKi. The compound in question is CCCCOc1c(F)cc(N2CCN(S(=O)(=O)C3(C(=O)NO)CCN(CCOC)CC3)CC2)cc1F
Marked response: 7.83

---

Target: MMP-9 (Homo sapiens, UniProt P14780)
Construct: made in house; host or cells: MMP-9-transfected HT1080 cells (spent media)
Assay: In vitro MMP inhibition, Ki determination (fluorogenic substrate II)
Type: biochemical
Settings: value not in parenthesis
outcome measure: Ki (µM)
Kindly provide the numeric value in µM only, without the unit symbol.

Exam item: Can you share its Ki? I mean this molecule: CCCCOc1ccc(N2CCN(S(=O)(=O)C3(C(=O)NO)CCN(c4nc5ccccc5s4)CC3)CC2)cc1
Marked response: 0.0601

Exam item: // returns reported Ki for input CCCCOc1ccc(N2CCN(S(=O)(=O)C3(C(=O)NO)CCN(c4cc(C)ccn4)CC3)CC2)cc1
Marked response: 0.00745

Exam item: Return reported Ki; argument: O=C(NO)C1(S(=O)(=O)N2CCN(c3ccc(SC(F)(F)F)cc3)CC2)CCN(Cc2ccccc2)CC1
Marked response: 0.09

Exam item: Report Ki for CCCCc1ccc(N2CCN(S(=O)(=O)C3(C(=O)NO)CCN(CCOC)CC3)CC2)cc1F please.
Marked response: 0.000149
